Task for the reader: assign each of the following molecules its reported % Inhibition of BoNT/A LC metalloprotease activity.
target: BoNT/A LC metalloprotease (Clostridium botulinum); experiment: biochemical
Sequence (P0DPI0 2-448 limits assumed): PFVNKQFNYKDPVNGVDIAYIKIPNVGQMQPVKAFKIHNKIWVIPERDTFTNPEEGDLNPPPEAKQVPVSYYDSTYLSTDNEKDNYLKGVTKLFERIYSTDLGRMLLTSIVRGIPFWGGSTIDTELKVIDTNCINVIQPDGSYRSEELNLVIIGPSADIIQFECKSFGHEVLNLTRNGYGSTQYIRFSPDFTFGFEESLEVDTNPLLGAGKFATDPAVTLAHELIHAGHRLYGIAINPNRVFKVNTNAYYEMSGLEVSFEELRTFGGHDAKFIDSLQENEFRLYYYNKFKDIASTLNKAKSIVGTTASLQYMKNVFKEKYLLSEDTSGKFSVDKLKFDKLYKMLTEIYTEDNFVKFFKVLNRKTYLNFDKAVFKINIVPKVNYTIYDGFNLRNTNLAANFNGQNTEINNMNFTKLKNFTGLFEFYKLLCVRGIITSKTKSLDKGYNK
Record the value in %, omitting the unit from your answer.

## Task # % Inhibition of BoNT/A LC metalloprotease activity lookup, item C(=C\c1cc2ccc(C3=NCCN3)cc2o1)/c1cc2cc(C3=NCCN3)ccc2[nH]1
## Result 38

## Task # % Inhibition of BoNT/A LC metalloprotease activity lookup, item C(=C\c1cc2ccc(C3=NCCN3)cc2[nH]1)/c1ccc2cc(C3=NCCN3)[nH]c2c1
## Result 60

## Task # % Inhibition of BoNT/A LC metalloprotease activity lookup, item N=C(N)N/N=C/c1ccc(-c2cc3ccc(/C=N/NC(=N)N)cc3s2)cc1
## Result 68

## Task # % Inhibition of BoNT/A LC metalloprotease activity lookup, item C(=C\c1cc2cc(C3=NCCN3)ccc2o1)/c1cc2cc(C3=NCCN3)ccc2o1
## Result 53

###

molecular target: BoNT/A LC metalloprotease (Clostridium botulinum); experiment: biochemical
REPORTED PROPERTY: % Inhibition of BoNT/A LC metalloprotease activity (%)
Record the value in %, omitting the unit from your answer.

## Task Form: Entry = N=C(N)c1ccc2oc(/C=C/C=C/C=C/c3cc4cc(C(=N)N)ccc4o3)cc2c1 [NSC 308574] | System = BoNT/A LC metalloprotease (Clostridium botulinum) | % Inhibition of BoNT/A LC metalloprotease activity = ____
## Result 63

## Task Form: Entry = N=C(N)c1ccc2cc(/C=C/c3cc4ccc(C(=N)N)cc4o3)[nH]c2c1 [NSC 294200] | System = BoNT/A LC metalloprotease (Clostridium botulinum) | % Inhibition of BoNT/A LC metalloprotease activity = ____
## Result 48

## Task Form: Entry = N=C(N)c1ccc(Oc2ccc(-c3cc4ccc(C(=N)N)cc4[nH]3)cc2)cc1 [NSC 240898] | System = BoNT/A LC metalloprotease (Clostridium botulinum) | % Inhibition of BoNT/A LC metalloprotease activity = ____
## Result 61

###

target: BoNT/A LC metalloprotease (Clostridium botulinum); assay: biochemical
Task for the reader: assign each of the following compounds its reported % Inhibition of BoNT/A LC metalloprotease activity.

## Task Form: Entry = c1cc2cc(-c3cc4ccc(C5=NCCN5)cc4[nH]3)[nH]c2cc1C1=NCCN1 | System = BoNT/A LC metalloprotease (Clostridium botulinum) | % Inhibition of BoNT/A LC metalloprotease activity = ____
## Result 43%

## Task Form: Entry = C(=C\c1cc2ccc(C3=NCCN3)cc2o1)/c1cc2ccc(C3=NCCN3)cc2o1 | System = BoNT/A LC metalloprotease (Clostridium botulinum) | % Inhibition of BoNT/A LC metalloprotease activity = ____
## Result 45%

## Task Form: Entry = C(=C\c1cc2cc(C3=NCCN3)ccc2s1)/c1ccc(C2=NCCN2)cc1 | System = BoNT/A LC metalloprotease (Clostridium botulinum) | % Inhibition of BoNT/A LC metalloprotease activity = ____
## Result 41%

## Task Form: Entry = N=C(N)c1ccc2oc(/C=C/c3cc4cc(C(=N)N)ccc4s3)cc2c1 | System = BoNT/A LC metalloprotease (Clostridium botulinum) | % Inhibition of BoNT/A LC metalloprotease activity = ____
## Result 57%

## Task Form: Entry = C(/C=C/c1cc2cc(C3=NCCN3)ccc2o1)=C\c1cc2cc(C3=NCCN3)ccc2o1 | System = BoNT/A LC metalloprotease (Clostridium botulinum) | % Inhibition of BoNT/A LC metalloprotease activity = ____
## Result 52%

## Task Form: Entry = C(=C\c1cc2cc(C3=NCCN3)ccc2o1)/c1cc2cc(C3=NCCN3)ccc2[nH]1 | System = BoNT/A LC metalloprotease (Clostridium botulinum) | % Inhibition of BoNT/A LC metalloprotease activity = ____
## Result 51%

## Task Form: Entry = N=C(N)c1ccc2[nH]c(/C=C/c3cc4ccc(C(=N)N)cc4o3)cc2c1 | System = BoNT/A LC metalloprotease (Clostridium botulinum) | % Inhibition of BoNT/A LC metalloprotease activity = ____
## Result 46%

## Task Form: Entry = C(=C\c1cc2ccc(C3=NCCN3)cc2[nH]1)/c1cc2ccc(C3=NCCN3)cc2[nH]1 | System = BoNT/A LC metalloprotease (Clostridium botulinum) | % Inhibition of BoNT/A LC metalloprotease activity = ____
## Result 35%

## Task Form: Entry = C(=C\c1ccc2[nH]c(C3=NCCN3)cc2c1)/c1ccc(Oc2ccc(C3=NCCN3)cc2)cc1 | System = BoNT/A LC metalloprotease (Clostridium botulinum) | % Inhibition of BoNT/A LC metalloprotease activity = ____
## Result 40%

## Task Form: Entry = C(=C/c1cc2cc(C3=NCCN3)ccc2o1)/c1cc2cc(C3=NCCN3)ccc2o1 | System = BoNT/A LC metalloprotease (Clostridium botulinum) | % Inhibition of BoNT/A LC metalloprotease activity = ____
## Result 36%

## Task Form: Entry = N=C(N)c1ccc2[nH]c(/C=C/c3cc4cc(C(=N)N)ccc4o3)cc2c1 | System = BoNT/A LC metalloprotease (Clostridium botulinum) | % Inhibition of BoNT/A LC metalloprotease activity = ____
## Result 52%

## Task Form: Entry = N=C(N)c1ccc2oc(/C=C/C=C/c3cc4cc(C(=N)N)ccc4o3)cc2c1 | System = BoNT/A LC metalloprotease (Clostridium botulinum) | % Inhibition of BoNT/A LC metalloprotease activity = ____
## Result 37%

## Task Form: Entry = N=C(N)c1ccc(/C=C/c2cc3ccc(C(=N)N)cc3[nH]2)cc1 | System = BoNT/A LC metalloprotease (Clostridium botulinum) | % Inhibition of BoNT/A LC metalloprotease activity = ____
## Result 43%

## Task Form: Entry = N=C(N)c1ccc(/C=C/c2cc3cc(C(=N)N)ccc3[nH]2)cc1 | System = BoNT/A LC metalloprotease (Clostridium botulinum) | % Inhibition of BoNT/A LC metalloprotease activity = ____
## Result 47%

## Task Form: Entry = C(=C\c1cc2ccc(C3=NCCN3)cc2[nH]1)/c1ccc(Oc2ccc(C3=NCCN3)cc2)cc1 | System = BoNT/A LC metalloprotease (Clostridium botulinum) | % Inhibition of BoNT/A LC metalloprotease activity = ____
## Result 53%

## Task Form: Entry = c1cc2cc(-c3ccc(-c4cc5ccc(C6=NCCN6)cc5[nH]4)cc3)[nH]c2cc1C1=NCCN1 | System = BoNT/A LC metalloprotease (Clostridium botulinum) | % Inhibition of BoNT/A LC metalloprotease activity = ____
## Result 45%

## Task Form: Entry = C1=NC(c2ccc3cc(-c4c(-c5ccc(C6=NCCN6)cc5)[nH]c5cc(C6=NCCN6)ccc45)[nH]c3c2)NC1 (centres unmarked) | System = BoNT/A LC metalloprotease (Clostridium botulinum) | % Inhibition of BoNT/A LC metalloprotease activity = ____
## Result 37%
